subject-of-test: Renin (Homo sapiens)
Sequence (P00797 whole entry): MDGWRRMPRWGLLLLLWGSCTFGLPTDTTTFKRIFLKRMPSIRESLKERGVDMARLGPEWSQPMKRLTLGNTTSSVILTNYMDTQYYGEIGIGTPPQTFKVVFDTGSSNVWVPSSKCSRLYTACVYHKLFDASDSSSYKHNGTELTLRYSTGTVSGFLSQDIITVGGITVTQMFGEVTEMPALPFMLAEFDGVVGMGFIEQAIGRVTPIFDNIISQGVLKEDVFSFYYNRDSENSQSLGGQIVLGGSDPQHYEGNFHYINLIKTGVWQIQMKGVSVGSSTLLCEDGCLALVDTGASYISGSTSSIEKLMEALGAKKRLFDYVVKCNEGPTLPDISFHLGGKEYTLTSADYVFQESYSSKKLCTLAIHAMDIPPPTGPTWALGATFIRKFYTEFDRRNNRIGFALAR
assay-protocol: Competitive inhibition of renin from human amniotic […]
observed-property: Ki (µM)

>>> numeric_value("COC(=O)[C@H](Cc1ccccc1)NC(=O)[C@@H](NC(=O)[C@H](O)[C@@H](N)CC(C)C)C(C)C")
1010
>>> numeric_value("COC(=O)[C@H](Cc1ccccc1)NC(=O)[C@@H](NC(=O)[C@@H](O)[C@@H](N)CC(C)CC(=O)[C@@H](N)CC(C)C)C(C)C (stereo partly drawn)")
520
>>> numeric_value("COC(=O)[C@H](Cc1ccccc1)NC(=O)[C@@H](NC(=O)[C@H](O)[C@@H](N)CC(C)CC(=O)[C@@H](N)CC(C)C)C(C)C (stereo partly drawn)")
440

Cited source for all entries: ChEMBL document CHEMBL1122063
